Below, each entry is listed alongside its reported nuclei count.
assay: endothelial E-selectin expression blockers – imaging, HUVEC, immunofluorescence, MLSMR starter and 10KST1 sets, primary screen (AID 487);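 note: 100% = median nuclei count of all wells on the same plate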
settings: HUVEC TNFalpha-induced E-selectin immunofluorescence imaging, at 2 µM; measured here: cell number, toxicity
Give a bare numeral; the unit % is implied.

Example entries and their recorded answers appear below.
compound=Cc1c(Br)c(C(F)(F)F)nn1CC(=O)NCCN1CCOCC1 measurement_name="nuclei count" unit=% reported_value=114
compound=O=C(Nc1cccc2c1CCCC2)C1CCN(c2nnnn2-c2ccccc2)CC1 measurement_name="nuclei count" unit=% reported_value=109
compound=Cc1ccc(-n2ncc3c(Nc4c(C)n(C)n(-c5ccccc5)c4=O)ncnc32)c(C)c1 measurement_name="nuclei count" unit=% reported_value=120
compound=Cc1ccccc1NC(=O)c1ccccc1 measurement_name="nuclei count" unit=% reported_value=110
compound=Cn1c(=O)c(NC(=O)c2ccccc2)c2n(c1=S)CCCCC2 measurement_name="nuclei count" unit=% reported_value=107
compound=O=C(NCc1cccnc1)c1ccccc1Br measurement_name="nuclei count" unit=% reported_value=112
compound="CCOc1ccccc1CN1C(=O)c2ccccc2C1C(=O)NCC1CCCO1 (stereo not drawn)" measurement_name="nuclei count" unit=% reported_value=114
compound="CCCCC(=NCCO)C1=C(O)C(C(=O)OC)C(C)(C)CC1=O (stereo not drawn)" measurement_name="nuclei count" unit=% reported_value=167

Request the reported nuclei count associated with COc1ccc([C@@H]2Sc3ccccc3N(CCN(C)C)C(=O)[C@@H]2OC(C)=O)cc1
104

Could you tell me which nuclei count is on file for C/C(=N\O)c1ccc2c3c([nH]c2c1)CCCC3 ?
96.4

Sample Cc1ccc(NC(=O)CSc2nnc(CCCCCNC(=O)OC(C)(C)C)o2)c(C)c1 — what was its nuclei count?
102

Which nuclei count value is on record for COc1cc(NC(=O)c2cc(-n3cnnc3)ccc2Cl)cc(OC)c1 ?
95.5

Requested read-out: nuclei count. Entry: COc1cccc(Nc2c(F)c(F)c(F)c(F)c2C(=O)O)c1
96.6

Fill blank: measured nuclei count of the compound Cc1noc(C)c1S(=O)(=O)N1CCC(C(=O)Nc2ccccn2)CC1 is ____.
128

Entry under review: CC(C)=CCSc1nnc(CCNC(=O)OC(C)(C)C)o1 . Reported nuclei count?
95.7

Entry under review: CCOC(=O)c1sc(C)c2c(=O)n(CC)nnc12 . Reported nuclei count?
109

Which nuclei count value is on record for Brc1ccc(-c2nnc3sc(CN4CCC5(CC4)OCCO5)cn23)cc1 ?
130

Look at this compound and give its reported nuclei count. COc1cccc(CNC(=O)C2CCN(S(=O)(=O)c3ccc(F)cc3)CC2)c1
123

State the recorded nuclei count for this entry: Cc1ccc(F)cc1NC(=O)Cc1nn(C)c(=O)c2ccccc12
102

Quick one: nuclei count of COc1ccccc1C(=O)n1nc(-c2ccccc2)nc1N ?
119

# lookup: nuclei count of CCOc1cc(C)c(Cl)cc1S(=O)(=O)N(C)C
99.4

Sample CC(C)(C)C(=O)N=C1SC2CS(=O)(=O)CC2N1c1ccc2c(c1)OCO2 (stereo not drawn) — what was its nuclei count?
132

Could you share which nuclei count value was measured for Cc1ccc(S(=O)(=O)N(C)CC(=O)NC2CC(C)(C)NC(C)(C)C2)cc1 ?
89.8

FYI, the data here is from PubChem BioAssay.
